Give measured koff for each item. Keep answers brief.
- study_system: T1, canine NGF tagged at the C-terminus with the Flag tag (canine, UniProt A0A8I3PYI3 122-241)
- T1 construct: mature; Expressed with baculovirus technology; also called feline NGF (processed form identical)
- T1 sequence (A0A8I3PYI3 entry or part of it): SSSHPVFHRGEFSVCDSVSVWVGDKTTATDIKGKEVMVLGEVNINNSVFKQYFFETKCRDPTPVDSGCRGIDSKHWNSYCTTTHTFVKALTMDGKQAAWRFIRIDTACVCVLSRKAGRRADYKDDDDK
- test_protocol: SPR off-rate assay, Fab-SASA on BSA chip

Dear reader, for each entry below, please note its koff.
1. AHF17603 (Fab, V domains shown, not shown: small tags and cut ends) VH: DVQLVESGGDLVKPGGSLRLTCVASGLSLTSSSMVWVRQAPGKGLQWVSTIYSNGGTYYTDSVKGRFTISKDNAENTLYLQMNNLKTEDTATYYCASIYYYDADYLHWYFDEWGQGALVTVSS VL: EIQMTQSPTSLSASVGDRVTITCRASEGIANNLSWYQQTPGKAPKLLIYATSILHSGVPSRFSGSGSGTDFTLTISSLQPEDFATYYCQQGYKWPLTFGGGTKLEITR
2. AHF17591 (Fab, V domains shown, not shown: small tags and cut ends) VH: DVQLVESGGDLVKPGGSLRLTCVASGLSLTSSSMVWVRQAPGKGLQWVSTIYSNRGTYYTDSVKGRFTISKDNAENTLYLQMNNLKTEDTATYYCASIYYYDADYLHWYFDEWGQGALVTVSS VL: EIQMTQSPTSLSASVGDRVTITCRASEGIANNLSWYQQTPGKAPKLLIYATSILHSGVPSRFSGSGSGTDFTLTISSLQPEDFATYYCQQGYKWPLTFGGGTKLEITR
3. AHF17599 (Fab, V domains shown, not shown: small tags and cut ends) VH: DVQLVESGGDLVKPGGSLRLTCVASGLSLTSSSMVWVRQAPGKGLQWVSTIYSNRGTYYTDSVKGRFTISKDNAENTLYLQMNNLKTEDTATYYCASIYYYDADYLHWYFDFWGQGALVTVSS VL: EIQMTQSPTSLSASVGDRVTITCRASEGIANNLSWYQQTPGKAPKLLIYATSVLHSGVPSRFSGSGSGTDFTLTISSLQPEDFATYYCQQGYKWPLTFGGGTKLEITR
4. AHF17598 (Fab, V domains shown, not shown: small tags and cut ends) VH: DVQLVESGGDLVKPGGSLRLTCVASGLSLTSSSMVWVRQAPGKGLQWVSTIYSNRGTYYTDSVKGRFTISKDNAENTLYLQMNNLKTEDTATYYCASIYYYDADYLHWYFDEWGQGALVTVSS VL: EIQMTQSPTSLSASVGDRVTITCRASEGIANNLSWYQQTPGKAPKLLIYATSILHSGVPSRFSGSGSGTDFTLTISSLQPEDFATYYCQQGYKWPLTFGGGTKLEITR
5. AHF17593 (Fab, V domains shown, not shown: small tags and cut ends, Fab-SASA, combinatorial library) VH: DVQLVESGGDLVKPGGSLRLTCVASGLSLTSSSMVWVRQAPGKGLQWVSTIYSNRGTYYTDSVKGRFTISKDNAENTLYLQMNNLKTEDTATYYCAQIYYYDADYLHWYFDFWGQGALVTVSS VL: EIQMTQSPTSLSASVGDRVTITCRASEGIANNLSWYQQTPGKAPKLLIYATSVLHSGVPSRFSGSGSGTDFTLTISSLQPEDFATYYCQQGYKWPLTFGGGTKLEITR

Reply:
["0.000245 s⁻¹", "≤ 1e-06 s⁻¹", "≤ 1e-06 s⁻¹", "5.25e-05 s⁻¹", "≤ 1e-06 s⁻¹"]
